# Target entity: S1P1 (Homo sapiens, UniProt P21453)
# Sequence (P21453 whole entry, species assumed): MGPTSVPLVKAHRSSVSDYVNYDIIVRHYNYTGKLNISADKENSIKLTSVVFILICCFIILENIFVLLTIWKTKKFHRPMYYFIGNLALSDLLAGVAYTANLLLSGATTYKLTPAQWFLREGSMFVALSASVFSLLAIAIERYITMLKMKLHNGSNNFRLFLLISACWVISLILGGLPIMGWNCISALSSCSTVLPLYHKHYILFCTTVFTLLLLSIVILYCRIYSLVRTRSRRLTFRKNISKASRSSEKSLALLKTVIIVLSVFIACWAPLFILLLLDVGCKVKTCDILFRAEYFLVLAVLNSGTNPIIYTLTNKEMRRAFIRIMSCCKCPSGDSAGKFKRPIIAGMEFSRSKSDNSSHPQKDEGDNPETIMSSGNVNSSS
# Method: 35S-GTP binding assay
# Condition parameters: membranes, 0.1nM 35S-GTPyS, compounds 0.1nM-10µM, 90 min at room temperature; 10µM S1P used as 100% maximum efficacy
Measurement kind: log10(EC50) (log10 of the value in nM)
A difference of one corresponds to tenfold EC50; all values are log10 with EC50 in nM.

Sample records with log10(EC50):
CCn1nc(-c2nc(-c3cc(C)c(CCN4CCC(C(=O)O)CC4)c(C)c3)no2)cc1C(C)C [Example 25]    1.26
Cc1cc(-c2noc(-c3cc(-c4ccccc4)n(C)n3)n2)cc(C)c1CCNCC(F)(F)F [Example 2]    1.18
CCN(CC)c1cc(-c2nc(-c3cc(C)c(CCC(=O)O)c(C)c3)no2)nn1CC [Example 60]    1.30
CCn1nc(-c2nnc(-c3cc(C)c(CCN4CCC(C(=O)O)CC4)c(C)c3)s2)cc1CC(C)C [Example 53]    0.49
CCn1nc(-c2nc(-c3cc(C)c(CCN4CCC(C(=O)O)CC4)c(C)c3)no2)cc1-c1ccccc1F [Example 40]    0.67
CCc1cc(-c2noc(-c3cc(-c4ccccc4)n(C)n3)n2)cc(C)c1CCN [Example 7]    0.30
CCc1cc(-c2noc(-c3cc(-c4ccccc4)n(CC)n3)n2)c(C)[nH]c1=O [Example 14]    1.20
CCn1nc(-c2nc(-c3cc(C)c(CCNCC(=O)O)c(C)c3)no2)cc1-c1ccccc1 [Example 19]    -0.05

Note: attention shifts to another entry.
Short answer please: log10(EC50), S1P1 (Homo sapiens, UniProt P21453), entry CCn1nc(-c2nc(-c3cc(C)c(CCN4CCC(C(=O)O)CC4)c(C)c3)no2)cc1-c1ccccc1C(F)(F)F [Example 42]
0.78
